Task for the reader: assign each of the following compounds its reported log10 of IC50.
- System: V79
- Assay remarks: Mammalian cell cytotoxicity test in chinese hamster V79 cells (clonogenic cytotoxicity)
- Format: functional, cell-based
- Settings: Cricetulus griseus, V79; read-out: IC50
Short version: log10 scale, IC50, µg/mL.

CC1(CN)CCN(c2c(F)cc3c(=O)c(C(=O)O)cn(C4CC4)c3c2C(F)(F)F)C1 (centres undefined)	2.04
NC1CCN(c2c(F)cc3c(=O)c(C(=O)O)cn(C4CC4)c3c2F)C1 (stereo in doubt; 21)	1.48
NC1CCN(c2c(F)c(F)c3c(=O)c(C(=O)O)cn(C4CC4)c3c2C(F)(F)F)C1 (centres undefined)	2.28

For each of the items listed, what is its log10 of IC50?
1. C=Cn1cc(C(=O)O)c(=O)c2cc(F)c(N3CCC(N)C3)c(F)c21 (centres undefined)
2. NC1CCN(c2cc3c(cc2F)c(=O)c(C(=O)O)cn3C2CC2)CC1
3. CC1CN(c2c(F)cc3c(=O)c(C(=O)O)cn(C4CC4)c3c2Cl)CC(C)N1 (centres undefined)
4. CC1CN(c2c(F)cc3c(=O)c(C(=O)O)cn(C4CC4)c3c2Cl)CCN1 (centres undefined)
5. CNCC1(C)CCN(c2c(F)cc3c(=O)c(C(=O)O)cn(C4CC4)c3c2F)C1 (centres undefined)

# output
1: 2.49; 2: 2.36; 3: 2.15; 4: 1.65; 5: 0.90

* * *

- Test system: V79
- Assay remarks: Mammalian cell cytotoxicity test in chinese hamster V79 cells (clonogenic cytotoxicity)
- Assay type: functional, cell-based
- Settings: Cricetulus griseus, V79; read-out: IC50
Would you mind telling me the reported IC50 of each entry?
Answers are plain numbers, in µg/mL.

The cases that follow already have their IC50 on record.
NCC1CCN(c2cc3c(cc2F)c(=O)c(C(=O)O)cn3C2CC2)C1 (stereo not given)	81
CCNCC1CCN(c2cc3c(cc2F)c(=O)c(C(=O)O)cn3CC)C1 (stereo not given)	310
NC1CCN(c2c(F)cc3c(=O)c(C(=O)O)cn(C4CC4)c3c2C(F)(F)F)CC1	20
CCn1cc(C(=O)O)c(=O)c2cc(F)c(N3CCC(N)C3)c(F)c21 (stereo not given)	300
CCNCC1CCN(c2c(F)c(F)c3c(=O)c(C(=O)O)cn(C4CC4)c3c2F)C1 (stereo not given)	46

Here are 6 molecules. What values of IC50 were reported for them?
1. Nc1c(F)c(N2CCC(N)C2)c(Cl)c2c1c(=O)c(C(=O)O)cn2C1CC1 (stereo not given)
2. COc1c(N2CCC(N)C2)c(F)c(N)c2c(=O)c(C(=O)O)cn(C3CC3)c12 (stereo not given)
3. CC1(n2cc(C(=O)O)c(=O)c3cc(F)c(N4CCC(N)C4)c(F)c32)CC1 (stereo not given)
4. CCNCC1CCN(c2c(F)c(Cl)c3c(=O)c(C(=O)O)cn(C4CC4)c3c2Cl)C1 (stereo not given)
5. Nc1c(F)c(N2CCC(N)C2)c(F)c2c1c(=O)c(C(=O)O)cn2C1CC1 (stereo not given)
6. CC1(CN)CCN(c2nc3c(cc2F)c(=O)c(C(=O)O)cn3C2CC2)C1 (stereo not given)

# output
1: 59; 2: 100; 3: 160; 4: 270; 5: 15; 6: 25

Below are some molecules; for each one, tell me its IC50.
1. NC1CCN(c2nc3c(cc2F)c(=O)c(C(=O)O)cn3-c2ccc(F)cc2F)C1 (stereo not given)
2. O=C(O)c1cn(C2CC2)c2c(Cl)c(N3CCCC3)c(F)cc2c1=O
3. Nc1c(N2CCC(N)C2)c(F)cc2c(=O)c(C(=O)O)cn(C3CC3)c12 (stereo not given)

# output
1. 128
2. 150
3. 260

For each entry beneath this line, provide reported IC50.
1. COc1c(N2CCNCC2)c(F)cc2c(=O)c(C(=O)O)cn(C3CC3)c12
2. NC1CCN(c2nc3c(cc2F)c(=O)c(C(=O)O)cn3C2CC2)CC1

# output
1. 82
2. 100

* * *

- Assay remarks: Antibacterial activity against five Gram-negative bacteria
- Assay type: functional
- Settings: read-out: MIC
For each record, write down the corresponding log10 of MIC.
Log scale reminder: MIC in µg/mL, then log10 taken.

# annotated cases, reported log10 of MIC shown
CNCC1(C)CCN(c2nc3c(cc2F)c(=O)c(C(=O)O)cn3C2CC2)C1 (centres undefined)	-0.22
CCNCC1CCN(c2c(F)cc3c(=O)c(C(=O)O)cn(C4CC4)c3c2OC)C1 (stereo in doubt; 26d)	-0.59

Here are 7 compounds. What values of log10 of MIC were reported for them?
1. CCNCC1CCN(c2c(F)cc3c(=O)c(C(=O)O)cn(C4CC4)c3c2[N+](=O)[O-])C1 (centres undefined)
2. NC1CCN(c2c(F)cc3c(=O)c(C(=O)O)cn(C4CC4)c3c2C(F)(F)F)CC1
3. NC1CCN(c2cc3c(cc2F)c(=O)c(C(=O)O)cn3C2CC2)C1 (stereo in doubt; 24a)
4. O=C(O)c1cn(C2CC2)c2nc(N3CCCC3)c(F)cc2c1=O
5. NC1CCN(c2cc3c(cc2F)c(=O)c(C(=O)O)cn3C2CC2)CC1
6. CCNCC1CCN(c2cc3c(c(N)c2F)c(=O)c(C(=O)O)cn3C2CC2)C1 (centres undefined)
7. CCNCC1CCN(c2c(F)cc3c(=O)c(C(=O)O)cn(C4CC4)c3c2N)C1 (centres undefined)

# output
1: 0.02; 2: -0.59; 3: -1.05; 4: -0.59; 5: -0.59; 6: -0.46; 7: -0.04

* * *

- Tested on: V79
- Assay remarks: Mammalian cell cytotoxicity test in chinese hamster V79 cells (clonogenic cytotoxicity)
- Type: functional, cell-based
- Settings: Cricetulus griseus, V79; read-out: IC50
Kindly state log10 of IC50 for each of the entries shown.
Hello, just confirming the data are log10 of IC50 with units of µg/mL.

Below, each entry is followed by its recorded log10 of IC50 result.
O=C(O)c1cn(C2CC2)c2c(C(F)(F)F)c(N3CCCC3)c(F)cc2c1=O	2.45
CCNCC1CCN(c2cc3c(cc2F)c(=O)c(C(=O)O)cn3C2CC2)C1 (stereo in doubt; 26a)	2.20
NC1CCN(c2c(F)cc3c(=O)c(C(=O)O)cn(C4CC4)c3c2Cl)CC1	1.26

Provide the reported log10 of IC50 of each entry below, same order.
1. CC1(CN)CCN(c2c(F)cc3c(=O)c(C(=O)O)cn(C4CC4)c3c2F)C1 (centres undefined)
2. NCC1CCN(c2nc3c(cc2F)c(=O)c(C(=O)O)cn3C2CC2)C1 (centres undefined)
3. NC1CCCN(c2nc3c(cc2F)c(=O)c(C(=O)O)cn3C2CC2)C1 (centres undefined)

# output
1. 0.90
2. 1.71
3. 2.00

* * *

- Assay remarks: Antibacterial activity against five Gram-negative bacteria
- Format: functional
- Settings: read-out: MIC
For each record, write down the corresponding log10 MIC.
Note: values are log10 of MIC expressed in µg/mL.

For each of the molecules below, state log10 MIC.
1. NC1CCN(c2c(F)c(Cl)c3c(=O)c(C(=O)O)cn(C4CC4)c3c2Cl)C1 (stereo not given)
2. O=C(O)c1cn(C2CC2)c2c(Cl)c(N3CCCC3)c(F)cc2c1=O
3. Nc1c(N2CCC(N)C2)c(F)cc2c(=O)c(C(=O)O)cn(C3CC3)c12 (stereo not given)

# output
[-0.89, -1.00, -0.28]

Go through the list and state log10 MIC for each entry.
1. NC1CCN(c2c(F)cc3c(=O)c(C(=O)O)cn(C4CC4)c3c2Cl)C1 (stereo in doubt; 24c)
2. O=C(O)c1cn(C2CC2)c2c(C(F)(F)F)c(N3CCNCC3)c(F)cc2c1=O

# output
-1.52
-0.82

* * *

- Tested on: V79
- Assay remarks: Mammalian cell cytotoxicity test in chinese hamster V79 cells (clonogenic cytotoxicity)
- Format: functional, cell-based
- Settings: Cricetulus griseus, V79; read-out: IC50
Give IC50 for every item shown.
Numbers only, in µg/mL.

Worked cases, IC50 given:
O=C(O)c1cn(C2CC2)c2cc(N3CCNCC3)c(F)cc2c1=O	380
NC1CCN(c2c(F)c(O)c3c(=O)c(C(=O)O)cn(C4CC4)c3c2F)C1 (centres undefined)	43
NC1CCCN(c2c(F)cc3c(=O)c(C(=O)O)cn(C4CC4)c3c2Cl)C1 (centres undefined)	24

List IC50 for every entry below, keeping the order given.
1. CCNCC1CCN(c2cc3c(cc2F)c(=O)c(C(=O)O)cn3-c2ccc(F)cc2F)C1 (stereo in doubt; 36b)
2. NC1CCN(c2c(F)cc3c(=O)c(C(=O)O)cn(C4CC4)c3c2Cl)C1 (stereo in doubt; 24c)
3. COc1c(N2CCC(CN)C2)c(F)cc2c(=O)c(C(=O)O)cn(C3CC3)c12 (centres undefined)

# output
[190, 26, 10]

I need IC50 for every entry listed below, if you could help.
1. O=C(O)c1cn(C2CC2)c2c(Cl)c(N3CCNCC3)c(F)cc2c1=O
2. CCNCC1CCN(c2cc3c(c(N)c2F)c(=O)c(C(=O)O)cn3C2CC2)C1 (centres undefined)
3. COc1c(N2CCC(C)(CN)C2)c(F)cc2c(=O)c(C(=O)O)cn(C3CC3)c12 (centres undefined)
4. CCNCC1CCN(c2cc3c(c(C)c2F)c(=O)c(C(=O)O)cn3C2CC2)C1 (centres undefined)

# output
1. 43
2. 61
3. 38
4. 42
